- MEASUREMENT TARGET: human FLT3 (hFLT3) (human) (UniProt P36888)
- Sequence (P36888 27-543 limits assumed): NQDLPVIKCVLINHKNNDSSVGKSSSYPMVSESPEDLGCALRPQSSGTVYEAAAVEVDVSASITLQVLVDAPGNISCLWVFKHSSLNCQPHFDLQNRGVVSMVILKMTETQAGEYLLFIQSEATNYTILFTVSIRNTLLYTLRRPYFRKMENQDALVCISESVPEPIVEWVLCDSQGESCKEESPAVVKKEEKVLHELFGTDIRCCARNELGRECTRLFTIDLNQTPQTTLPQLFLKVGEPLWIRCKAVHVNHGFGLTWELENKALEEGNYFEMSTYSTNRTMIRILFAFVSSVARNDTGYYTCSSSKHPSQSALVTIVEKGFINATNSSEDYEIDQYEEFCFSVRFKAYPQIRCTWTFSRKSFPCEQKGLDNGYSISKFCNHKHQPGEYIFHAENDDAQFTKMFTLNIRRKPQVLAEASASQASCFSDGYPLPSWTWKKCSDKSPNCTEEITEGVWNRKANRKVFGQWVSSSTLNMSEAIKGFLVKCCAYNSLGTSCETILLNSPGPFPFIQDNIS
- ASSAY METHOD TEXT: SPR, Table 6, scFv format; set-up and antigen species not described

BINDER	t1/2
P4C7 (scFv format) (scFv, part only; not given: linker, domain order, tags, V domains shown, not shown: another chain or arm of the molecule; small tags and cut ends) VH: QVQLVQSGAEVKKPGSSVKVSCKASGGTFSSYTISWVRQAPGQGLEWMGGIIPAFGIANYAQKFQGRVTITADKSTSTAYMELSSLRSEDTAVYYCAKGGSYSLDYFDIWGQGTLVTVSS VL: EIVLTQSPGTLSLSPGERATLSCRASQYVSASLLAWYQQKPGQAPRLLIYGASTRATGIPDRFSGSGSGTDFTLTISRLEPEDFAVYYCQQYARSSTFGQGTKVEIK	7 min
P9F1 (scFv format) (scFv, part only; not given: linker, domain order, tags, V domains shown, not shown: another chain or arm of the molecule; small tags and cut ends) VH: EVQLLESGGGLVQPGGSLRLSCAASGFIFSSFAMSWVRQAPGKGLEWVSDISGSGASTYYADSVKGRFTISRDNSKNTLYLQMNSLRAEDTAVYYCASASGGSGSYWPYMDPWGQGTLVTVSS VL: QSVLTQPPSASGTPGQRVTISCSGSGSNIGSNYVYWYQQLPGTAPKLLIYRNNQRPSGVPDRFSGSKSGTSASLAISGLRSEDEADYYCAAWDGSLSRPVFGTGTKLTVL	0.4 min
P5F7 (scFv format) (scFv, from a related filing, part only) scFv: EVQLLESGGGLVQPGGSLRLSCAASGFTFSSYAMNWVRQAPGKGLEWVSSISGGGRSTYYADSVKGRFTISRDNSKNTLYLQMNSLRAEDTAVYYCARDLSPSDVGWGYGFDIWGQGTLVTVSSGGGGSGGGGSGGGGSEIVLTQSPATLSLSPGERATLSCRASQSVSSNLAWYQQKPGQAPRLLIYDTFTRATGIPARFSGSGSGTDFTLTISRLEPEDFAVYYCQQYGSSPPTFGQGTRLEIK	59 min
P5A3 (scFv format) (scFv, part only; not given: linker, domain order, tags, V domains shown, not shown: another chain or arm of the molecule; small tags and cut ends) VH: QVQLVQSGAEVKKPGSSVKVSCKASGGTFSSYYIGWVRQAPGQGLEWMGGIIPWFGTANYAQKFQGRVTITADKSTNTAYMELSSLRSEDTAVYYCAADHHDSPSGYTSGGFDVWGQGTLVTVSS VL: QSALTQPASVSGSPGQSITISCTGTSSDVGGYNYVSWYQQHPGKAPKLMIYEVSKRPSGVPDRFSGSKSGNTASLTVSGLQAEDEADYYCSSYAGSNTVVFGGGTKLTVL	0.7 min
